Just for reference, paper PMC9292600 is where these values come from.

Assay type: in vivo, human (healthy adult participants)
Conditions: human, plasma, po, 100 mg, Arithmetic mean AUCinf, Treatment D: single oral 100-mg dose, oral solution, fasted; n = 24; mean ± SD
Measured metric: AUC(0-inf) (ng·h/mL)
State just the number; it will be interpreted in ng·h/mL.

// lookup AUC(0-inf) for C[C@H]1Oc2cc(cnc2N)-c2c(nn(C)c2C#N)CN(C)C(=O)c2ccc(F)cc21 [Lorlatinib]
9620

---

Type: in vivo, human (healthy adult participants)
Settings: human, plasma, po, 100 mg, Arithmetic mean t1/2, Treatment B: single oral 100-mg dose, tablets + high-fat meal; n = 23; mean ± SD
Measured metric: half-life (h)
State just the number; it will be interpreted in h.

// lookup half-life for "C[C@H]1Oc2cc(cnc2N)-c2c(nn(C)c2C#N)CN(C)C(=O)c2ccc(F)cc21"
23.7

---

Type: in vivo, human (healthy adult participants)
Conditions: human, plasma, po, 100 mg, Geometric mean AUCinf, Treatment D: single oral 100-mg dose, oral solution, fasted; n = 24; value (geometric %CV)
Measured metric: AUC(0-inf) (ng·h/mL)
State just the number; it will be interpreted in ng·h/mL.

// lookup AUC(0-inf) for "C[C@H]1Oc2cc(cnc2N)-c2c(nn(C)c2C#N)CN(C)C(=O)c2ccc(F)cc21"
9360

---

Format: in vivo, human (healthy adult participants)
Details: human, plasma, po, Geometric mean AUClast, Treatment C: single oral 100-mg dose, tablets + rabeprazole 20 mg, fasted; n = 23; value (geometric %CV)
Measured metric: AUC(0-t)
Numeric answer plus unit only.

// lookup AUC(0-t) for C[C@H]1Oc2cc(cnc2N)-c2c(nn(C)c2C#N)CN(C)C(=O)c2ccc(F)cc21 [Lorlatinib]
8010 ng·h/mL

---

Type: in vivo, human (healthy adult participants)
Conditions: human, plasma, po, 100 mg, Arithmetic mean AUClast, Treatment D: single oral 100-mg dose, oral solution, fasted; n = 24; mean ± SD
Measured metric: AUC(0-t)

// lookup AUC(0-t) for "C[C@H]1Oc2cc(cnc2N)-c2c(nn(C)c2C#N)CN(C)C(=O)c2ccc(F)cc21"
8990 ng·h/mL

---

Format: in vivo, human (healthy adult participants)
Details: human, plasma, po, Arithmetic mean Cmax, Treatment C: single oral 100-mg dose, tablets + rabeprazole 20 mg, fasted; n = 23; mean ± SD
Measured metric: Cmax (ng/mL)
State just the number; it will be interpreted in ng/mL.

// lookup Cmax for C[C@H]1Oc2cc(cnc2N)-c2c(nn(C)c2C#N)CN(C)C(=O)c2ccc(F)cc21 [Lorlatinib]
398

---

Type: in vivo, human (healthy adult participants)
Conditions: human, plasma, po, 100 mg, Tmax, Treatment D: single oral 100-mg dose, oral solution, fasted; n = 24; median (range)
Measured metric: Tmax (h)
State just the number; it will be interpreted in h.

// lookup Tmax for C[C@H]1Oc2cc(cnc2N)-c2c(nn(C)c2C#N)CN(C)C(=O)c2ccc(F)cc21 [Lorlatinib]
1

---

Type: in vivo, human (healthy adult participants)
Settings: human, plasma, po, Arithmetic mean AUClast, Treatment C: single oral 100-mg dose, tablets + rabeprazole 20 mg, fasted; n = 23; mean ± SD
Measured metric: AUC(0-t) (ng·h/mL)
State just the number; it will be interpreted in ng·h/mL.

// lookup AUC(0-t) for C[C@H]1Oc2cc(cnc2N)-c2c(nn(C)c2C#N)CN(C)C(=O)c2ccc(F)cc21 [Lorlatinib]
8190

---

Type: in vivo, human (healthy adult participants)
Conditions: human, plasma, po, 100 mg, Geometric mean AUClast, Treatment D: single oral 100-mg dose, oral solution, fasted; n = 24; value (geometric %CV)
Measured metric: AUC(0-t) (ng·h/mL)
State just the number; it will be interpreted in ng·h/mL.

// lookup AUC(0-t) for "C[C@H]1Oc2cc(cnc2N)-c2c(nn(C)c2C#N)CN(C)C(=O)c2ccc(F)cc21"
8790

---

Format: in vivo, human (healthy adult participants)
Conditions: human, plasma, po, 100 mg, Arithmetic mean AUClast, Treatment A: single oral 100-mg dose, tablets, fasted; n = 24; mean ± SD
Measured metric: AUC(0-t) (ng·h/mL)
State just the number; it will be interpreted in ng·h/mL.

// lookup AUC(0-t) for "C[C@H]1Oc2cc(cnc2N)-c2c(nn(C)c2C#N)CN(C)C(=O)c2ccc(F)cc21"
8380

---

Type: in vivo, human (healthy adult participants)
Details: human, plasma, po, 100 mg, Geometric mean AUClast, Treatment B: single oral 100-mg dose, tablets + high-fat meal; n = 23; value (geometric %CV)
Measured metric: AUC(0-t) (ng·h/mL)
State just the number; it will be interpreted in ng·h/mL.

// lookup AUC(0-t) for C[C@H]1Oc2cc(cnc2N)-c2c(nn(C)c2C#N)CN(C)C(=O)c2ccc(F)cc21 [Lorlatinib]
8260

---

Format: in vivo, human (healthy adult participants)
Details: human, plasma, po, 100 mg, Arithmetic mean t1/2, Treatment A: single oral 100-mg dose, tablets, fasted; n = 24; mean ± SD
Measured metric: half-life
Numeric answer plus unit only.

// lookup half-life for C[C@H]1Oc2cc(cnc2N)-c2c(nn(C)c2C#N)CN(C)C(=O)c2ccc(F)cc21 [Lorlatinib]
1450 min

---

Format: in vivo, human (healthy adult participants)
Settings: human, plasma, po, 100 mg, Geometric mean Cmax, Treatment D: single oral 100-mg dose, oral solution, fasted; n = 24; value (geometric %CV)
Measured metric: Cmax (ng/mL)
State just the number; it will be interpreted in ng/mL.

// lookup Cmax for "C[C@H]1Oc2cc(cnc2N)-c2c(nn(C)c2C#N)CN(C)C(=O)c2ccc(F)cc21"
705

---

Assay type: in vivo, human (healthy adult participants)
Settings: human, plasma, po, 100 mg, Geometric mean Cmax, Treatment A: single oral 100-mg dose, tablets, fasted; n = 24; value (geometric %CV)
Measured metric: Cmax
Numeric answer plus unit only.

// lookup Cmax for "C[C@H]1Oc2cc(cnc2N)-c2c(nn(C)c2C#N)CN(C)C(=O)c2ccc(F)cc21"
0.548 µg/mL

---

Assay type: in vivo, human (healthy adult participants)
Conditions: human, plasma, po, Geometric mean AUCinf, Treatment C: single oral 100-mg dose, tablets + rabeprazole 20 mg, fasted; n = 23; value (geometric %CV)
Measured metric: AUC(0-inf) (ng·h/mL)
State just the number; it will be interpreted in ng·h/mL.

// lookup AUC(0-inf) for C[C@H]1Oc2cc(cnc2N)-c2c(nn(C)c2C#N)CN(C)C(=O)c2ccc(F)cc21 [Lorlatinib]
8630

---

Type: in vivo, human (healthy adult participants)
Conditions: human, plasma, po, Arithmetic mean AUCinf, Treatment C: single oral 100-mg dose, tablets + rabeprazole 20 mg, fasted; n = 23; mean ± SD
Measured metric: AUC(0-inf) (ng·h/mL)
State just the number; it will be interpreted in ng·h/mL.

// lookup AUC(0-inf) for "C[C@H]1Oc2cc(cnc2N)-c2c(nn(C)c2C#N)CN(C)C(=O)c2ccc(F)cc21"
8880

---

Format: in vivo, human (healthy adult participants)
Details: human, plasma, po, 100 mg, Arithmetic mean t1/2, Treatment D: single oral 100-mg dose, oral solution, fasted; n = 24; mean ± SD
Measured metric: half-life
Numeric answer plus unit only.

// lookup half-life for "C[C@H]1Oc2cc(cnc2N)-c2c(nn(C)c2C#N)CN(C)C(=O)c2ccc(F)cc21"
24.1 h

---

Type: in vivo, human (healthy adult participants)
Settings: human, plasma, po, Tmax, Treatment C: single oral 100-mg dose, tablets + rabeprazole 20 mg, fasted; n = 23; median (range)
Measured metric: Tmax (h)
State just the number; it will be interpreted in h.

// lookup Tmax for "C[C@H]1Oc2cc(cnc2N)-c2c(nn(C)c2C#N)CN(C)C(=O)c2ccc(F)cc21"
2

---

Type: in vivo, human (healthy adult participants)
Conditions: human, plasma, po, 100 mg, Arithmetic mean Cmax, Treatment D: single oral 100-mg dose, oral solution, fasted; n = 24; mean ± SD
Measured metric: Cmax (ng/mL)
State just the number; it will be interpreted in ng/mL.

// lookup Cmax for C[C@H]1Oc2cc(cnc2N)-c2c(nn(C)c2C#N)CN(C)C(=O)c2ccc(F)cc21 [Lorlatinib]
722

---

Format: in vivo, human (healthy adult participants)
Conditions: human, plasma, po, 100 mg, Arithmetic mean AUCinf, Treatment A: single oral 100-mg dose, tablets, fasted; n = 24; mean ± SD
Measured metric: AUC(0-inf)
Numeric answer plus unit only.

// lookup AUC(0-inf) for C[C@H]1Oc2cc(cnc2N)-c2c(nn(C)c2C#N)CN(C)C(=O)c2ccc(F)cc21 [Lorlatinib]
8960 ng·h/mL
